Assay: In vivo biodistribution and clearance in PC-3 tumor-bearing mice
Settings: male, NMRI-Foxn1 nu/nu, mouse, spleen, iv, total radioactivity; 4 h p.i., i.v.; read-out: % uptake spleen
VALUE_KIND: tissue uptake at 4 h
Note: a bare number is incomplete; add the unit.

Given item CC(C)CC(CC(C)C)NC(=O)[C@H](Cc1cnc[nH]1)NC(=O)CNC(=O)[C@@H](NC(=O)[C@H](C)NC(=O)[C@H](Cc1c[nH]c2ccccc12)NC(=O)[C@H](CCC(N)=O)NC(=O)[C@@H](Cc1ccccc1)NC(=O)COCC(=O)Nc1ccc(CNC(=O)CN2CCN(CC(=O)O)CCN(CC(=O)O)CCN(CC(=O)O)CC2)cc1)C(C)C [[^177Lu]Lu-NeoB, metal not drawn] , the value recorded as its tissue uptake at 4 h is 0.15 %ID/g

// sample CC(C)C[C@H](NC(=O)C[C@H](O)[C@H](CC(C)C)NC(=O)[C@H](Cc1c[nH]cn1)NC(=O)CNC(=O)[C@@H](NC(=O)[C@H](C)NC(=O)[C@H](Cc1c[nH]c2ccccc12)NC(=O)[C@H](CCC(N)=O)NC(=O)[C@@H](Cc1ccccc1)NC(=O)CN1CCC(NC(=O)CN2CCN(CC(=O)O)CCN(CC(=O)O)CCN(CC(=O)O)CC2)CC1)C(C)C)C(N)=O [[^177Lu]Lu-RM2, metal not drawn] , its tissue uptake at 4 h was 0.06 %ID/g

====

Assay: In vivo biodistribution and clearance in PC-3 tumor-bearing mice
Details: male, NMRI-Foxn1 nu/nu, mouse, gastrointestinal tract, iv, total radioactivity; 1 h p.i., i.v.; read-out: % uptake gastrointestinal tract
Exercise: for every item that follows, state its recorded tissue uptake at 1 h.
Write it as a number; the unit %ID/g goes unstated.

Value of measured tissue uptake at 1 h for the entry CC(C)CC(CC(C)C)NC(=O)[C@H](Cc1cnc[nH]1)NC(=O)CNC(=O)[C@@H](NC(=O)[C@H](C)NC(=O)[C@H](Cc1c[nH]c2ccccc12)NC(=O)[C@H](CCC(N)=O)NC(=O)[C@@H](Cc1ccccc1)NC(=O)COCC(=O)Nc1ccc(CNC(=O)CN2CCN(CC(=O)O)CCN(CC(=O)O)CCN(CC(=O)O)CC2)cc1)C(C)C [[^177Lu]Lu-NeoB, metal not drawn] : 3.08

Noted for CC(C)C[C@H](NC(=O)C[C@H](O)[C@H](CC(C)C)NC(=O)[C@H](Cc1c[nH]cn1)NC(=O)CNC(=O)[C@@H](NC(=O)[C@H](C)NC(=O)[C@H](Cc1c[nH]c2ccccc12)NC(=O)[C@H](CCC(N)=O)NC(=O)[C@@H](Cc1ccccc1)NC(=O)CN1CCC(NC(=O)CN2CCN(CC(=O)O)CCN(CC(=O)O)CCN(CC(=O)O)CC2)CC1)C(C)C)C(N)=O [[^177Lu]Lu-RM2, metal not drawn] : its tissue uptake at 1 h reads 1.75

====

Assay: In vivo biodistribution and clearance in PC-3 tumor-bearing mice
Conditions: male, NMRI-Foxn1 nu/nu, mouse, spleen, iv, total radioactivity; 24 h p.i., i.v.; read-out: % uptake spleen
So I've got a bunch of compounds here, and I need their tissue uptake at 24 h values.
State the answer as a number, implicitly in %ID/g.

Given item CC(C)C[C@H](NC(=O)C[C@H](O)[C@H](CC(C)C)NC(=O)[C@H](Cc1c[nH]cn1)NC(=O)CNC(=O)[C@@H](NC(=O)[C@H](C)NC(=O)[C@H](Cc1c[nH]c2ccccc12)NC(=O)[C@H](CCC(N)=O)NC(=O)[C@@H](Cc1ccccc1)NC(=O)CN1CCC(NC(=O)CN2CCN(CC(=O)O)CCN(CC(=O)O)CCN(CC(=O)O)CC2)CC1)C(C)C)C(N)=O [[^177Lu]Lu-RM2, metal not drawn] , the value recorded as its tissue uptake at 24 h is 0.04

For record CC(C)CC(CC(C)C)NC(=O)[C@H](Cc1cnc[nH]1)NC(=O)CNC(=O)[C@@H](NC(=O)[C@H](C)NC(=O)[C@H](Cc1c[nH]c2ccccc12)NC(=O)[C@H](CCC(N)=O)NC(=O)[C@@H](Cc1ccccc1)NC(=O)COCC(=O)Nc1ccc(CNC(=O)CN2CCN(CC(=O)O)CCN(CC(=O)O)CCN(CC(=O)O)CC2)cc1)C(C)C [[^177Lu]Lu-NeoB, metal not drawn] the listed tissue uptake at 24 h is 0.04
